Recorded values, source PubChem BioAssay AID504648.

# METHOD_SUMMARY: Nrf2 qHTS screen for inhibitors: counterscreen for cytotoxicity
# REPORTED_CONDITIONS: A549 ARE-Fluc cells, CellTiter-Fluor viability, 18-24 h; series mostly up to 46 µM
In all, about 390,000 compounds went through this assay and about 610 (0.16%) were called active. Roughly 4% stayed inconclusive and do not appear here. Calls follow the shape of the dose curve; as a rule, active = well fitted inhibition curve with a large enough effect; inconclusive = small, poorly fitted or top-dose-only effect, or effect the other way, or another doubt; inactive = no such curve, though single readings can be large or run the other way. What follows is part of a selection rich in actives, with near analogues and random picks from the rest.
Write down the outcome that applies. Available outcomes: active, inactive

Check out these entries, answers already filled in.
CCOc1ccc(Br)cc1S(=O)(=O)Nc1cccc(S(=O)(=O)N(CC)CC)c1    inactive
O=C(O)C1CC=CC2CCN(C3CCCCC3)C(=O)C21 (configuration not stated)    inactive
O=C(Nc1cccc2cccnc12)C(F)(F)F    inactive
Cc1ccc(S(=O)(=O)Nc2ccccc2CNc2c(C)n(C)n(-c3ccccc3)c2=O)cc1    inactive
O=C(NCc1nnc(C(=O)Nc2ccc(C(F)(F)F)cc2Cl)o1)c1ccccc1    inactive

input: Per the assay record, what outcome was assigned to COc1ccc(C2Nc3ccc(NC(=O)COC(C)=O)cc3C(=O)N2Cc2ccccc2)cc1COc1ccc(NC(C)=O)cc1 (configuration not stated) ?
output: inactive

input: Hi, do you know how COc1cccc2c1C(=O)c1c(O)c3c(c(O)c1C2=O)CC(O)(C(C)=NNC(=O)c1ccc(Cl)c(Cl)c1)CC3OC1CC(N)C(O)C(C)O1 (configuration not stated) came out in this test?
output: active

input: For Cc1c(N=Nc2ccc(N(C)C)cc2)c(=O)n(-c2ccccc2)n1C , what call appears in the results of this test?
output: active

input: Recorded call for CCOc1ccc(Br)cc1CSC(=N)N ?
output: active

----------
# METHOD_SUMMARY: Nrf2 qHTS screen for inhibitors: counterscreen for cytotoxicity
# REPORTED_CONDITIONS: A549 ARE-Fluc cells, CellTiter-Fluor viability, 18-24 h; series mostly up to 46 µM
Out of some 390,000 compounds screened, about 610 (0.16%) were called active. Another 4% or so got no clear call; they are omitted. Calls follow the shape of the dose curve; as a rule, active = well fitted inhibition curve with a large enough effect; inconclusive = small, poorly fitted or top-dose-only effect, or effect the other way, or another doubt; inactive = no such curve, though single readings can be large or run the other way. The list comes from a sample in which actives are over-represented; it also holds close analogues and randomly drawn compounds.
Returns: one label drawn from T for active, F for inactive

Consider the worked cases shown below.
O=C(NNC(=O)c1cccc(S(=O)(=O)Nc2ccc(Cl)cc2)c1)c1ccc(=O)[nH]c1    F
CCN1C(=O)c2ccccc2Sc2ccc(NC(=O)Cc3ccc(OC)cc3)cc21    F

Turning to the following compound.
input: Dear colleague, could you share the recorded outcome for COc1cc(C(CCN2CCN(c3ccccc3)CC2)c2c(OC)cc(OC)c3ccc(=O)oc23)cc(OC)c1OC (stereo unspecified) when you have a moment?
output: F

----------
# METHOD_SUMMARY: Nrf2 qHTS screen for inhibitors: counterscreen for cytotoxicity
# REPORTED_CONDITIONS: A549 ARE-Fluc cells, CellTiter-Fluor viability, 18-24 h; series mostly up to 46 µM
# Procedure: NIH Molecular Libraries Probe Production Network [MLPCN] NIH Chemical Genomics Center [NCGC] Assay Provider: Shyam Biswal, Johns Hopkins University […] A concentration-response assay was performed with A549 ARE_Fluc cells which are suspended in 5% FBS OPTI-MEM. […] The plate is then incubated at 37deg C at 5% CO2 for 30 minutes before they are read on the ViewLux (Perkin Elmer) for a fluorescent read Ex=405(10)/Em=525(10) for a 3 second exposure, 2x binning, and high gain. […]
Hit rate of the full screen: of about 390,000 compounds, about 610 (0.16%) were called active. About 4% were inconclusive and are not listed. Calls follow the shape of the dose curve; as a rule, active = well fitted inhibition curve with a large enough effect; inconclusive = small, poorly fitted or top-dose-only effect, or effect the other way, or another doubt; inactive = no such curve, though single readings can be large or run the other way. This excerpt belongs to a sample that is enriched for actives.
Would you mind answering with one of these outcomes? true (active), false (inactive)

Worked examples follow.
Cc1cc(Nc2cc(N3CCN(C)CC3)nc(Sc3ccc(NC(=O)C4CC4)cc3)n2)n[nH]1    false
C=CC(=O)Nc1ccc(Nc2ccnc(Nc3ccc(N4CCN(C)CC4)cc3)n2)cc1    true
Cc1c(C)n(Cc2ccc(Cl)cc2)c2ccc(C(=O)NCCc3ccc(S(N)(=O)=O)cc3)cc12    false
N#Cc1ccc(OC2=NS(=O)(=O)c3ccccc32)cc1    false

Please examine the following record next.
input: So what was the verdict on O=C(COc1ccccc1)Nc1ccc(N2CCN(C(=O)c3cccs3)CC2)cc1 in this test?
output: false
